assay.system: recombinant human enteropeptidase (Homo sapiens (Human), UniProt P98073)
Sequence (P98073 whole entry): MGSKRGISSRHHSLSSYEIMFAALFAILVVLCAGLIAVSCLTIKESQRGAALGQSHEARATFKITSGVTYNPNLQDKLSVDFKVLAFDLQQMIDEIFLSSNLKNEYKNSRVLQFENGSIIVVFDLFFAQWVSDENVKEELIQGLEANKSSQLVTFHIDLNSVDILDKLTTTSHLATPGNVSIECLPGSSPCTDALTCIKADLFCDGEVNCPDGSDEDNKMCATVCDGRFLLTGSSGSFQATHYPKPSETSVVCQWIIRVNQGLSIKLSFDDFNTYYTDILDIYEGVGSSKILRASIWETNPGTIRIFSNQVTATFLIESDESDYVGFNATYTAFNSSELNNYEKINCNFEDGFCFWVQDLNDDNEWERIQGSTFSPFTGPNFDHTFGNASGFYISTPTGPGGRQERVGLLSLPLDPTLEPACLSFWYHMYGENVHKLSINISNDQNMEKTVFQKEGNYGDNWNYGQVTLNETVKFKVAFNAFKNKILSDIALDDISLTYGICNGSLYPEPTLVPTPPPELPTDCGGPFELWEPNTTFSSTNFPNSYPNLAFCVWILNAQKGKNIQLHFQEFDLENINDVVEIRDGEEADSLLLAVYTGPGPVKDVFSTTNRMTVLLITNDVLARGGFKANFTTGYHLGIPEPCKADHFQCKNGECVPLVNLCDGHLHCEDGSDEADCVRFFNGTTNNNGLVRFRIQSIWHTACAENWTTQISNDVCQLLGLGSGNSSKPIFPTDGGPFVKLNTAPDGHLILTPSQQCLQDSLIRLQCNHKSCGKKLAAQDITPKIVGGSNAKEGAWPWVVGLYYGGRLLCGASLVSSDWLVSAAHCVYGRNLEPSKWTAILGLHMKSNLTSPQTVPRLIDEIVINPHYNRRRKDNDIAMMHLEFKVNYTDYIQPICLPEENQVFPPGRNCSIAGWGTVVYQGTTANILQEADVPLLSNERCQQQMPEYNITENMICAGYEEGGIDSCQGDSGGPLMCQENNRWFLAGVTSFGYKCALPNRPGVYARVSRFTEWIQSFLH
test.summary: Measurement of enteropeptidase inhibitory activity
protocol.conditions: Dixon plot
Where a name gives a salt, the structure may show the parent alone.
measured.property: pKi
// pKi here means minus log10 of the molar concentration (mol/L)

Problem: Which measured pKi value corresponds to CC(Cc1ccc(C(=O)Oc2ccc(C(=N)N)cc2F)s1)C(=O)NCP(=O)(O)O (stereo not drawn) ?
Result: 9.43

Problem: // lookup pKi for C/C(=C\c1ccc(C(=O)Oc2ccc(C(=N)N)cc2)o1)C(=O)N[C@@H](CO)C(=O)O
Result: 8.64

Problem: For C/C(=C\c1ccc(C(=O)Oc2ccc(C(=N)N)cc2)o1)C(=O)N(CCCO)CCC(=O)O [Compound A-12, trifluoroacetic acid salt] , what is its reported pKi?
Result: 8.48

Problem: What does the data say about its pKi? Entry: N=C(N)c1ccc(OC(=O)c2ccc(-c3cccc(C(=O)N[C@@H](CC(=O)O)C(=O)O)c3)o2)cc1 [Compound A-71, trifluoroacetic acid salt]
Result: 8.80

Problem: Could you share which pKi value was measured for CC(Cc1cc(C(=O)Oc2ccc(C(=N)N)cc2)co1)C(=O)NCP(=O)(O)O (stereo not drawn) ?
Result: 8.60

Problem: Dear colleague, I am looking for the recorded pKi of the following compound: C[C@H](Cc1ccc(C(=O)Oc2ccc(C(=N)N)cc2)o1)C(=O)O [Compound A-41, trifluoroacetic acid salt]
Result: 9.30

Problem: Please give the measured pKi for this compound: CC(Cc1ccc(C(=O)Oc2ccc(C(=N)N)cc2)o1)C(=O)NCCO (stereo not drawn)
Result: 8.36

Problem: Which pKi is listed for N=C(N)c1ccc(OC(=O)c2ccc(CCC(=O)N(CCC(=O)O)CC(=O)O)s2)c(F)c1 ?
Result: 9.30

Problem: Which pKi reading was recorded for the compound N=C(N)c1ccc(OC(=O)c2ccc(CCC(=O)N[C@@H](Cc3ccc(O)cc3)C(=O)O)s2)c(F)c1 ?
Result: 8.49

Problem: Entry Cc1cc(C(=O)Oc2ccc(C(=N)N)cc2F)sc1CCC(=O)N[C@@H](CC(=O)O)C(=O)O [Compound B-61, trifluoroacetic acid salt] : reported pKi = ?
Result: 9.89

Problem: # lookup: pKi of CC(C)CCNC(=O)C(C)Cc1ccc(C(=O)Oc2ccc(C(=N)N)cc2)o1 (stereo not drawn)
Result: 8.89

Problem: So what does the record say about pKi for CC(Cc1cc(C(=O)Oc2ccc(C(=N)N)cc2)co1)C(=O)N[C@@H](CC(=O)O)C(=O)O (stereo partly drawn) [Compound A-62, trifluoroacetic acid salt] ?
Result: 8.68

Problem: # lookup: pKi of CC(Cc1ccc(C(=O)Oc2ccc(C(=N)N)cc2)o1)C(=O)N1C[C@@H](O)C[C@H]1C(=O)O (stereo partly drawn)
Result: 8.32

Problem: // lookup pKi for CC(Cc1ccc(C(=O)Oc2ccc(C(=N)N)cc2)o1)C(=O)NCP(=O)(O)O (stereo not drawn)
Result: 8.96

Problem: If you can, please state the reported pKi value of CC(Cc1ccc(C(=O)Oc2ccc(C(=N)N)cc2)o1)C(=O)NCCN(C)C (stereo not drawn) .
Result: 8.12

Problem: Consider the compound shown here: CC(Cc1ccc(C(=O)Oc2ccc(C(=N)N)cc2)o1)C(=O)N(CCCO)CC(=O)O (stereo not drawn) What is its recorded pKi?
Result: 8.50

Problem: State the recorded pKi for this entry: N=C(N)c1ccc(OC(=O)c2ccc(CC(=O)O)o2)cc1 [Compound A-32, trifluoroacetic acid salt]
Result: 9.21

Problem: // lookup pKi for CC(Cc1ccc(C(=O)Oc2ccc(C(=N)N)cc2F)o1)C(=O)N[C@H](CC(=O)O)C(=O)O (stereo partly drawn) [Compound A-35, trifluoroacetic acid salt]
Result: 9.60

Problem: Consider the compound N=C(N)c1ccc(OC(=O)c2ccc(CC(CCC(=O)O)C(=O)N[C@@H](CC(=O)O)C(=O)O)o2)cc1 (stereo partly drawn) [Compound A-61, trifluoroacetic acid salt] and give its measured pKi.
Result: 9.38

Problem: Suppose we examine the compound C[C@H](Cc1ccc(C(=O)Oc2ccc(C(=N)N)cc2)o1)C(=O)N[C@H](CC(=O)O)C(=O)O [Compound A-46, trifluoroacetic acid salt] ; what pKi value has been reported?
Result: 9.46

Problem: For CC(Cc1ccc(C(=O)Oc2ccc(C(=N)N)cc2)s1)C(=O)N[C@@H](CS(=O)(=O)O)C(=O)O (stereo partly drawn) [Compound B-39, trifluoroacetic acid salt] , what is its reported pKi?
Result: 9.02

Problem: Endpoint output: pKi of CC(Cc1ccc(C(=O)Oc2ccc(C(=N)N)cc2)o1)C(=O)N[C@@H](CC(=O)O)C(=O)O (stereo partly drawn) . Value?
Result: 9.21

Problem: Dear colleague, I am looking for the recorded pKi of the following compound: C/C(=C\c1ccc(C(=O)Oc2ccc(C(=N)N)cc2)s1)C(=O)N[C@@H](CO)C(=O)O
Result: 8.24

Problem: Give its pKi value. Item: N=C(N)c1ccc(OC(=O)c2ccc(-c3ccc(C(=O)NCP(=O)(O)O)cc3)o2)cc1
Result: 8.57

Problem: What value of measured pKi is listed for CC(Cc1cc(C(=O)Oc2ccc(C(=N)N)cc2F)cs1)C(=O)O (stereo not drawn) [Compound B-51, trifluoroacetic acid salt] ?
Result: 9.14

Problem: Would you mind telling me what pKi value was observed for CC(C)C[C@H](Cc1ccc(C(=O)Oc2ccc(C(=N)N)cc2F)s1)C(=O)N[C@@H](CC(=O)O)C(=O)O [Compound B-26, trifluoroacetic acid salt] ?
Result: 8.66

Problem: Can you look up the measured pKi of N=C(N)c1ccc(OC(=O)c2ccc(CC(CCC(=O)O)C(=O)O)o2)cc1 (stereo not drawn) [Compound A-60, trifluoroacetic acid salt] for me?
Result: 9.51
